System: XF498
Assay: NCI tumour cell line growth inhibition, 48 h
Activity calls are given as the source filed them. Cut-off read from the data, not from the text of the source: active = GI50 up to about 1.1 µM and inactive = higher.
Write down one outcome, taken from Y for active, N for inactive

Query block: Please indicate how the test categorized `CCCCSN1C(=O)c2ccccc2C1=S` .
Result block: N

Query block: Please indicate how the test categorized `CN(C)c1ccc(Cc2cc(C(C)(C)C)cc(C(C)(C)C)c2O)cc1` .
Result block: N

Query block: Please indicate how the test categorized O=[N+]([O-])c1ccccc1[S+]([O-])c1ccccc1 (stereo unspecified) .
Result block: N

Query block: Please indicate how the test categorized `CN1CC(=O)N(C)c2[nH]cnc2C1=O` .
Result block: N

Query block: Please indicate how the test categorized `COC(=O)C(C)(C)/N=C/N(C)C` .
Result block: N

Query block: Please indicate how the test categorized CCOC(=O)C1=C(C)N(c2ccccc2)C2=C(C(=O)N(c3ccccc3)C2c2ccccc2)C1c1ccccc1 (stereo unspecified) .
Result block: N

Query block: Please indicate how the test categorized Nc1nc2[nH]cnc2c(=S)[nH]1 [THIOGUANINE] .
Result block: Y

Query block: Please indicate how the test categorized `CCOC(=O)Cc1cc(OC)c(OC)cc1/C(Cl)=C(\C=O)c1ccc(OC)c(OC)c1` .
Result block: N

Query block: Please indicate how the test categorized `Cc1cccc(NC(=O)CC#N)c1Cl` .
Result block: N

Query block: Please indicate how the test categorized `COC(=O)c1cc2c(nc1C)-c1ccccc1OS2(=O)=O` .
Result block: N

Query block: Please indicate how the test categorized O=C1c2cccc(O)c2C(=O)c2c(O)cc(CO)cc21 [ALOE-EMODIN] .
Result block: N

Query block: Please indicate how the test categorized `Cc1cc(C)nc(NS(=O)(=O)c2ccc(NC(=O)c3cccc4c(N)c5ccccc5nc34)cc2)n1` .
Result block: N

Query block: Please indicate how the test categorized `NCCOc1ccc(/C(=C(/Cl)c2ccccc2)c2ccccc2)cc1` .
Result block: N

Query block: Please indicate how the test categorized `CCN(CC)CCOc1ccc(C(=C2CCCCC2)c2ccc(OCCN(CC)CC)cc2)cc1` .
Result block: Y

Query block: Please indicate how the test categorized `O=C1[C@@H](c2ccc(Cl)cc2)[C@H]2CC=C[C@H]2N1O` .
Result block: N

Query block: Please indicate how the test categorized `O=C(CCn1[nH]c(=O)c(Cl)c(Cl)c1=O)NOCCCc1ccccc1` .
Result block: N

Query block: Please indicate how the test categorized `COC(=O)C1=C(c2ccc3c(c2)OCO3)O[C@H](c2cc(OC)c(OC)c(OC)c2)[C@H]1COC(C)=O` .
Result block: N

Query block: Please indicate how the test categorized `Cc1cnoc1/N=C1\C=C(Nc2oncc2C)C(=O)c2ccccc21` .
Result block: N

Query block: Please indicate how the test categorized O=C(Nc1ccc(Cl)cc1)NS(=O)(=O)c1ccc2c(c1)CCC2 [SULOFENUR] .
Result block: N

Query block: Please indicate how the test categorized CCOP1(=O)C=C(C)C(Cl)=C(C)C1 (stereo unspecified) .
Result block: N

Query block: Please indicate how the test categorized `CC(=O)CC(=O)CCCC(=O)Nc1ccc(Cl)cc1Cl` .
Result block: N

Query block: Please indicate how the test categorized `N=C(NC(=S)N1CCCCC1)N1CCCCC1` .
Result block: N

Query block: Please indicate how the test categorized `O=C(CCN1CCOCC1)/C(=C/c1ccccc1)c1ccccc1` .
Result block: N

Query block: Please indicate how the test categorized `CC1(C)CC(N(C(=O)/C=C/c2ccc([N+](=O)[O-])o2)C2CCCCC2)CC(C)(C)N1` .
Result block: N

Query block: Please indicate how the test categorized `COc1ccc(S(=O)(=O)N/N=C\c2cc([N+](=O)[O-])cc(I)c2O)c(OC)c1OC` .
Result block: N

Query block: Please indicate how the test categorized CCC/C=C\C=C\C1(NS(=O)(=O)c2ccc(C)cc2)CCC(C(C)(C)C)CC1 (stereo unspecified) .
Result block: N
